Known log10 Ki of a selection of compounds
- Test system: T47D
- procedure-summary: Inhibition of spermidine transport determined in T-47D human breast cancer cells
- Type: functional, cell-based
The figures below represent log10 of Ki, where Ki is stated in µM.

Here's what some known entries look like.
NCCC(CN)OCc1ccc(COC(CN)CCN)cc1 (configuration not stated); 1.11
NCCCNCCCN; 0.98
NCCCCCNCCCCCN; 0.53
NCCCCCN(CCCCCN)Cc1ccc(CN(CCCCCN)CCCCCN)cc1; 0.45
NCCCCN(CCCCN)Cc1ccc(CN(CCCCN)CCCCN)cc1; 0.45

Qu. Fill in the blank: the reported log10 Ki of NCCC(CN)NCc1ccc(CNC(CN)CCN)cc1 (configuration not stated) is ____.
Ans. 0.97

Qu. Fill in the blank: the reported log10 Ki of NCCCCCCN(CCCCCCN)Cc1ccc(CN(CCCCCCN)CCCCCCN)cc1 is ____.
Ans. 0.97

Qu. Fill in the blank: the reported log10 Ki of NCCCNCCCCN(CCCN)Cc1ccc(CN(CCCN)CCCCNCCCN)cc1 is ____.
Ans. 0.04

Qu. Fill in the blank: the reported log10 Ki of NCCCCCCNCCCCCCN is ____.
Ans. 1.32

Qu. Fill in the blank: the reported log10 Ki of NCCCNCCCCNCCCN is ____.
Ans. 0.32

Qu. Fill in the blank: the reported log10 Ki of NCCCCNCCCCN is ____.
Ans. 0.43
